- Tested on: UO-31 renal
- Test protocol: NCI-60 one-dose screen, 48 h
- Protocol conditions: 10 µM unless noted
Compounds without any hit were thinned out: in the full panel of roughly 83,000, 20% have a hit. Active and inactive are the calls of the source. The calls were made as follows: active = growth percent below 10; inactive = the rest.
Write down one outcome, taken from T (active), F (inactive)

For orientation, consider the following solved cases.
>>> class_label("COC(=O)[C@]12CC[C@@H](C)[C@H](C)[C@@H]1C1=CC[C@@H]3[C@@]4(C)C[C@@H](OC(C)=O)[C@H](O)[C@@](C)(CO)[C@@H]4[C@H](O)C[C@@]3(C)[C@]1(C)CC2")
"T"
>>> class_label("CC(c1ccccc1)N1C(=O)C(C2SC(=S)N(C(C)c3ccccc3)C2=O)SC1=S (centres undefined)")
"F"
>>> class_label("COc1cc(-c2cc3ncccc3c3[nH]c(=O)c4cccnc4c23)cc(OC)c1OC")
"F"
>>> class_label("CC(=O)c1c(C)[nH]c(-c2nc3ccc(N4CCN(C)CC4)cc3[nH]2)c1-c1ccc2c(c1)OCCO2")
"T"
>>> class_label("NCCNc1nc(-c2ccccc2)nc2nc(-c3ccccc3)oc12")
"F"

Returns: the outcome recorded for `CCOc1ccc(NC(=O)c2ccccc2-c2ccccc2C(=O)O)cc1` in this assay.
F

# outcome recorded in this test, key = `Cc1ccc(Sc2sc(-c3ccccc3)nc2[P+](c2ccccc2)(c2ccccc2)c2ccccc2)cc1`
T

Returns: the outcome recorded for `O=C1CCC/C=C\C[C@H]2C=C(Cl)C(=O)/C2=C/C[C@H](CCCCC(F)(F)F)OC(=O)CCC/C=C\C[C@H]2C=C(Cl)C(=O)/C2=C/C[C@H](CCCCC(F)(F)F)O1` in this assay.
T

I would be grateful if you could indicate the recorded call for `COc1ccc(NC(=O)c2ccoc2COc2ccccc2)cc1` .
F
